ASSAY TARGET: von Hippel-Lindau disease tumor suppressor/Lysine-specific demethylase 4A (Homo sapiens, UniProt O75164+P40337)
Sequence (O75164 2-1064 limits assumed): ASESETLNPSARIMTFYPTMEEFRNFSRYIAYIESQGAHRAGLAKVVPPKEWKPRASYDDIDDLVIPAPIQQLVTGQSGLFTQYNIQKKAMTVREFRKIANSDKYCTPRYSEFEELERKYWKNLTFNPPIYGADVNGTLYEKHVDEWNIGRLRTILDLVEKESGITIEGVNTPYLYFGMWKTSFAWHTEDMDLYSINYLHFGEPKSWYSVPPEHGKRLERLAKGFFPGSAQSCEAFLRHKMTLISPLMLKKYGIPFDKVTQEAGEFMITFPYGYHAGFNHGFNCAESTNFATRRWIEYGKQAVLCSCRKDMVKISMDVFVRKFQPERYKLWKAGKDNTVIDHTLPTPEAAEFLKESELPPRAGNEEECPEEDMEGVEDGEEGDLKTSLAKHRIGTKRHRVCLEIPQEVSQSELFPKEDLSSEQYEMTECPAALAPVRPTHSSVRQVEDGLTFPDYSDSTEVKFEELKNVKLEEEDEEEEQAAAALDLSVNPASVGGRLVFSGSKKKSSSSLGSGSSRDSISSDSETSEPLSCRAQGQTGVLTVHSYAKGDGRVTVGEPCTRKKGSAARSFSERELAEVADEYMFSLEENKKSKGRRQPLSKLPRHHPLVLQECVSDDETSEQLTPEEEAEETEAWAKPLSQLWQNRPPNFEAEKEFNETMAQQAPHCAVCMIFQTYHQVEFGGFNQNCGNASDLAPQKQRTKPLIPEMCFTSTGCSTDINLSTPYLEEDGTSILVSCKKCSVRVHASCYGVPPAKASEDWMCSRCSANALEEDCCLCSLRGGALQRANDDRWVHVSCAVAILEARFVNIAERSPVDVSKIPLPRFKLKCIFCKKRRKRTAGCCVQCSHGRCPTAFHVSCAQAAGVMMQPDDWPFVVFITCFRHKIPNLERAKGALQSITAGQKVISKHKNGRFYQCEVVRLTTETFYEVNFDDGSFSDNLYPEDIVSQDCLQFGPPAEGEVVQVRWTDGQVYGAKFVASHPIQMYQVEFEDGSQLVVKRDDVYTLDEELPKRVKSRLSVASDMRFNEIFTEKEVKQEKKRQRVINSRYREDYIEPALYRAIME
Sequence (P40337 whole entry partner): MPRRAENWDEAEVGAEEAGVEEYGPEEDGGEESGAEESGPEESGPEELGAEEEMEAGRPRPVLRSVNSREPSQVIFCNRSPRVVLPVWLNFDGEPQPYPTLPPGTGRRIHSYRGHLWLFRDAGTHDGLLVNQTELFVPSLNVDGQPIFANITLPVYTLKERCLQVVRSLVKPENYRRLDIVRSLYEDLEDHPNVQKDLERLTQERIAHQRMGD
EXPERIMENT DESCRIPTION: PROTAC activity at VHL/KDM4A in human KYSE-150 cells assessed as induction of KDM4A degradation at 1 uM incubated for 12 hrs by Western blot analysis relative to control
Type: cell-based
CONDITION NOTES: KYSE-150 cell line
QUANTITY: Activity (%)
Respond numerically; units are % and should not be typed.

| COMPOUND STRUCTURE STRING | UNIT INFO | Activity |
| --- | --- | --- |
| Cc1ncsc1-c1ccc([C@H](C)NC(=O)[C@@H]2C[C@@H](O)CN2C(=O)[C@@H](NC(=O)c2ccc(CCCCCCOc3ccc(N(C)c4ccc5c(c4)OCC[C@H]5CNc4cnccc4C(=O)O)cc3)cc2)C(C)(C)C)cc1 | % | 54.5 |
| Cc1ncsc1-c1ccc([C@H](C)NC(=O)[C@@H]2C[C@@H](O)CN2C(=O)[C@@H](NC(=O)CCCCCCOc2ccc(N(C)c3ccc4c(c3)OCC[C@H]4CNc3cnccc3C(=O)O)cc2)C(C)(C)C)cc1 | % | 57.9 |
| Cc1ncsc1-c1ccc([C@H](C)NC(=O)[C@@H]2C[C@@H](O)CN2C(=O)[C@@H](NC(=O)CCCCCCCCCCOc2ccc(N(C)c3ccc4c(c3)OCC[C@H]4CNc3cnccc3C(=O)O)cc2)C(C)(C)C)cc1 | % | 58.6 |
| Cc1ncsc1-c1ccc([C@H](C)NC(=O)[C@@H]2C[C@@H](O)CN2C(=O)[C@@H](NC(=O)CCCCCCCOc2cccc(N(C)c3ccc4c(c3)OCC[C@H]4CNc3cnccc3C(=O)O)c2)C(C)(C)C)cc1 | % | 41.1 |
| Cc1ncsc1-c1ccc([C@H](C)NC(=O)[C@@H]2C[C@@H](O)CN2C(=O)[C@@H](NC(=O)CCOCCOCCOc2ccc(N(C)c3ccc4c(c3)OCC[C@H]4CNc3cnccc3C(=O)O)cc2)C(C)(C)C)cc1 | % | 15.5 |

In: Could you share which Activity value was measured for `Cc1ncsc1-c1ccc([C@H](C)NC(=O)[C@@H]2C[C@@H](O)CN2C(=O)[C@@H](NC(=O)CCCCCCCOc2ccc(N(C)c3ccc4c(c3)OCC[C@H]4CNc3cnccc3C(=O)O)cc2)C(C)(C)C)cc1` ?
Out: 57.2

In: Another compound to look at: `Cc1ncsc1-c1ccc([C@H](C)NC(=O)[C@@H]2C[C@@H](O)CN2C(=O)[C@@H](NC(=O)CCCCCCCCCOc2ccc(N(C)c3ccc4c(c3)OCC[C@H]4CNc3cnccc3C(=O)O)cc2)C(C)(C)C)cc1`
Out: 57.2

---

ASSAY TARGET: von Hippel-Lindau disease tumor suppressor/Lysine-specific demethylase 4A (Homo sapiens, UniProt O75164+P40337)
EXPERIMENT DESCRIPTION: PROTAC activity at VHL/KDM4A in human KYSE-150 cells assessed as induction of KDM4A degradation at 0.1 uM incubated for 12 hrs by Western blot analysis relative to control
Format: cell-based
CONDITION NOTES: KYSE-150 cell line
Measured Activity values are reported for all entries that follow.
Respond numerically; units are % and should not be typed.

Answered examples (2):
| COMPOUND STRUCTURE STRING | UNIT INFO | Activity |
| --- | --- | --- |
| Cc1ncsc1-c1ccc([C@H](C)NC(=O)[C@@H]2C[C@@H](O)CN2C(=O)[C@@H](NC(=O)CCCCCOc2ccc(N(C)c3ccc4c(c3)OCC[C@H]4CNc3cnccc3C(=O)O)cc2)C(C)(C)C)cc1 | % | 15.9 |
| Cc1ncsc1-c1ccc([C@H](C)NC(=O)[C@@H]2C[C@@H](O)CN2C(=O)[C@@H](NC(=O)c2ccc(CCCCCOc3ccc(N(C)c4ccc5c(c4)OCC[C@H]5CNc4cnccc4C(=O)O)cc3)cc2)C(C)(C)C)cc1 | % | 42.7 |

In: Could you share which Activity value was measured for `Cc1ncsc1-c1ccc([C@H](C)NC(=O)[C@@H]2C[C@@H](O)CN2C(=O)[C@@H](NC(=O)CCCCCCCCCOc2ccc(N(C)c3ccc4c(c3)OCC[C@H]4CNc3cnccc3C(=O)O)cc2)C(C)(C)C)cc1` ?
Out: 44.9
